System: PRMT1 (protein arginine N-methyltransferase 1)
Assay: PRMT1 binders on small-molecule microarrays, primary screen, biochemical, small-molecule microarray, 635 nm fluorescence (AID 1088)
Details: small-molecule microarray binding, higher = more signal
PROPERTY MEASURED: composite z-score
Reply with just the number.

# composite z-score (compound: CC(C)CCC[C@@H](C)[C@H]1CC[C@@]2(C)C3=C(CC[C@]12C)[C@@]1(C)CC[C@H](OC(=O)CCl)C(C)(C)C1CC3 (stereo partly specified) ) is -0.132

Value of composite z-score reported for the compound COC(=O)C1=CC(c2ccc(CO)cc2)=CC(C2CC2)N(C)C=C1C(=O)OC (stereo unspecified) is 1.31

composite z-score measured on Cc1ccc(S[C@]2(C(=O)NC3CC3)CC(=O)N(Cc3ccccc3C(F)(F)F)[C@@H]2c2ccc(CO)cc2I)cc1 = 0.279

Record COCCCNC(=O)[C@@]1(Cc2ccccc2CN=[N+]=[N-])COC(c2ccc(OCCCO)cc2)=N1 . Reported composite z-score: 1.54

Quick note, composite z-score for C=CCC(OC(C)=O)[C@@H]1[C@@H](N(Cc2cc3ccccc3o2)C(=O)c2ccc(-c3ccccc3)cc2)c2cc(OCCCO)ccc2N1C(=O)c1ccc(-c2ccccc2)cc1 (stereo partly specified) landed at -0.527

The reported composite z-score of the compound CC(C)(C)OC(=O)CC[C@@]12N=C(c3ccc(OCCCO)cc3)O[C@@H]1c1ccccc1CN(Cc1ccccc1)C2=O was 1.56

The compound listed as CC(C)[C@@H](C(=O)O)n1cc(-c2ccccn2)nn1 shows composite z-score equal to 0.575

Record summary for CCOC(=O)C[C@H]1[C@H](OC(=O)c2ccc(C(=O)c3ccccc3)cc2)[C@@H](NC(=O)Cc2ccc(OC)cc2)c2cc(OCCCO)ccc2N1C(=O)Cc1ccc(OC)cc1 : reported composite z-score = 1.21

Data point: O=C(N1CCCCC1)[C@@]1(Cc2ccccc2)N=C(c2ccc(OCCCO)cc2)O[C@H]1c1ccccc1 ; composite z-score = 1.18

GET /value?item= O=C(NC1CC1)[C@@H]1c2ccccc2C(=O)N(Cc2ccccc2C(F)(F)F)[C@H]1c1ccc(CO)cc1 &field=composite z-score returns 1.57

Entry COC(=O)[C@@]1(CCC(=O)OC(C)(C)C)COC(c2ccc(OCCCO)cc2)=N1 ; composite z-score = -0.964

composite z-score reading for C=C(/C(=C/C[C@H](OC(C)=O)c1cccc(OCCO)c1)c1cc(C(=O)OC)ccc1OC)C(C)C : 0.359

Entry CC(C)CNC(=O)[C@@H]1c2ccccc2C(=O)N(Cc2ccc(OC(F)(F)F)cc2)[C@H]1c1ccc(CO)cc1 — recorded composite z-score = 1.54

The recorded composite z-score for entry NCCCCCCNC(=O)[C@@H]1C[C@@H]2C(=O)N[C@@H](Cc3ccccc3)C(=O)N2[C@@H]1c1ccc(O)cc1 equals 0.914

The recorded composite z-score for CC(C)(C)OC(=O)CC[C@@]12N=C(c3ccc(OCCCO)cc3)O[C@@H]1c1ccccc1N(Cc1ccccc1)C2=O is 1.32

The value of composite z-score measured for the compound C=C(C1=CCN(S(=O)(=O)c2ccc(C)cc2)C1)[C@@H](OC(C)=O)[C@@H]1CCCN1S(=O)(=O)c1ccccc1[N+](=O)[O-] turned out to be -0.267
